# test name: Rotarod test (muscle incoordination and ataxia)
# Assay type: in vivo, CFLP mice
# experimental conditions: mouse, in vivo, ip, screen test, i.p., 1 hour before test; read-out: Rotarod ED50
measured quantity: TD50 at 1 h (mg/kg)

[[record]]
compound = "NC(=O)N1CC(=O)Nc2ccc(Cl)cc2C1c1ccccc1 (stereo not drawn) [Example 13]"
units = "mg/kg"
test_result = 13.5

[[record]]
compound = "CN1C(=O)CN(C=O)C(c2ccccc2)c2cc(Cl)ccc21 (stereo not drawn) [Example 33]"
units = "mg/kg"
test_result = 23

[[record]]
compound = "CN1C(=O)CN(C(N)=O)C(c2ccccc2)c2cc(Cl)ccc21 (single isomer, unassigned; (+)) [Example 55]"
units = "mg/kg"
test_result = 7

